# ASSAY_NOTES: chemical genetic growth profiling, strain panel (AID 1159580);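 note: tested at 20 µM; growth read once vehicle control cultures reached saturation at 30 °C; 1 = growth at the plate median or of vehicle wells; lower values mean less growth of the strain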
# STATED_CONDITIONS: S. cerevisiae deletion strains, growth OD, locus YDL101C, strain DUN1, stronger effect = lower value
Among all 5,500 compounds or so, about 2,000 (36%) were called active. Roughly 18% stayed inconclusive and do not appear here. This is one part of the list.
ASSAY_METRIC: normalized growth
No unit in the answer, only the number.

-- ask Which value of normalized growth has been reported for `CCCCC[C@H]1C(=O)O[C@H](C)[C@H](NC(=O)c2cccc(NC=O)c2O)C(=O)O[C@@H](C)[C@@H]1OC(=O)CC(C)C` in the records?
-- reply 0.936

-- ask Which value of normalized growth has been reported for `Cc1cc(C(=O)NNS(=O)(=O)c2ccc(F)c(Cl)c2)nn1-c1c(Cl)cc(Cl)cc1Cl` in the records?
-- reply 0.975
